- Test system: Lean C57BL/6J mice
- measurement_description: Glucokinase activator in vivo screen, blood glucose in lean mice
- test_parameters: Mus musculus, vs control at 4 hours post 50 mg/kg oral dose, two hour fast, read-out: % glucose lowering @ 4 H
Kindly state change in vivo at 50 mg/kg for each of the entries shown.
Provide only the numeric value, understood in %.

Exercise: State change in vivo at 50 mg/kg on Lean C57BL/6J mice. Entry: Cn1nc(NC(=O)C(CC2CCCC2)n2ncc(Oc3ccccc3C(F)(F)F)cc2=O)cc1Cl (centres unmarked) [Example 13]
Key: -45.8

Exercise: # return change in vivo at 50 mg/kg of CC(C)(O)Cn1ccc(NC(=O)C(CC2CCCC2)n2ncc(OC3CCCC3)cc2=O)n1 (centres unmarked) [Example 8] (system: Lean C57BL/6J mice)
Key: -5.6

Exercise: Please respond with reported change in vivo at 50 mg/kg (system Lean C57BL/6J mice) for CC(C)(O)Cn1ccc(NC(=O)C(CC2CCCC2)n2ncc(Oc3ccccc3C#N)cc2=O)n1 (centres unmarked) [Example 29] .
Key: -27.8

Exercise: # return change in vivo at 50 mg/kg of COc1ccccc1Oc1cnn(C(CC2CCCC2)C(=O)Nc2ccn(CC(C)(C)O)n2)c(=O)c1 (centres unmarked) [Example 12] (system: Lean C57BL/6J mice)
Key: -49.3

Exercise: Name the recorded change in vivo at 50 mg/kg of CC(C)(O)Cn1ccc(NC(=O)C(CC2CCCC2)n2ncc(Oc3ccccc3C(F)(F)F)cc2=O)n1 (centres unmarked) [Example 11] , assay system Lean C57BL/6J mice.
Key: -48.9

Exercise: Give measured change in vivo at 50 mg/kg for CC(C)(O)Cn1ccc(NC(=O)C(CC2CCCC2)n2ncc(Oc3c(F)cccc3F)cc2=O)n1 (centres unmarked) [Example 36] (Lean C57BL/6J mice).
Key: -60.9

Exercise: Report value only: change in vivo at 50 mg/kg, Lean C57BL/6J mice, Cn1ccc(NC(=O)C(CC2CCCC2)n2ncc(Oc3ccccc3C(F)(F)F)cc2=O)n1 (centres unmarked) [Example 14]
Key: -46.7

Exercise: Enter measured change in vivo at 50 mg/kg, system Lean C57BL/6J mice, for the molecule shown: O=C(O)c1ccc(NC(=O)C(CC2CCCC2)n2ncc(Oc3ccccc3C3CCCC3)cc2=O)nc1 (centres unmarked) [Example 71]
Key: -61.7

Exercise: Give change in vivo at 50 mg/kg only, for CC(C)(O)Cn1ccc(NC(=O)C(CC2CCCC2)n2ncc(Oc3cc(F)ccc3F)cc2=O)n1 (centres unmarked) [Example 33] , using Lean C57BL/6J mice data.
Key: -30.2

Exercise: Specify change in vivo at 50 mg/kg for Cc1ccccc1Oc1cnn(C(CC2CCCC2)C(=O)Nc2ccn(CC(C)(C)O)n2)c(=O)c1 (centres unmarked) [Example 24] , system Lean C57BL/6J mice.
Key: -62.1

Exercise: Retrieve change in vivo at 50 mg/kg on Lean C57BL/6J mice; query CC(C)(O)Cn1ccc(NC(=O)C(CC2CCCC2)n2ncc(Oc3cccc4c3CCCC4)cc2=O)n1 (centres unmarked) [Example 17]
Key: -35.2

Exercise: GET change in vivo at 50 mg/kg where system = Lean C57BL/6J mice and item = O=C(Nc1nccs1)C(CC1CCCC1)n1ncc(Oc2ccccc2)cc1=O (centres unmarked) [Example 2]
Key: -41.9

Exercise: Give change in vivo at 50 mg/kg only, for CC(C)(O)Cn1ccc(NC(=O)C(CC2CCCC2)n2ncc(Oc3ccccc3F)cc2=O)n1 (centres unmarked) [Example 19] , using Lean C57BL/6J mice data.
Key: -49.2

Exercise: Determine reported change in vivo at 50 mg/kg for CC(C)(O)Cn1ccc(NC(=O)C(CC2CCCC2)n2ncc(Oc3ccccc3C3CCCC3)cc2=O)n1 (centres unmarked) [Example 22] ; test system: Lean C57BL/6J mice.
Key: -31.6

* * *

- assayed_system: Recombinant human liver GK1 (GST-GK) (Homo sapiens)
- Construct: made in house; host or cells: E. coli
- Sequence (P35557 1-466 isoform P35557-2): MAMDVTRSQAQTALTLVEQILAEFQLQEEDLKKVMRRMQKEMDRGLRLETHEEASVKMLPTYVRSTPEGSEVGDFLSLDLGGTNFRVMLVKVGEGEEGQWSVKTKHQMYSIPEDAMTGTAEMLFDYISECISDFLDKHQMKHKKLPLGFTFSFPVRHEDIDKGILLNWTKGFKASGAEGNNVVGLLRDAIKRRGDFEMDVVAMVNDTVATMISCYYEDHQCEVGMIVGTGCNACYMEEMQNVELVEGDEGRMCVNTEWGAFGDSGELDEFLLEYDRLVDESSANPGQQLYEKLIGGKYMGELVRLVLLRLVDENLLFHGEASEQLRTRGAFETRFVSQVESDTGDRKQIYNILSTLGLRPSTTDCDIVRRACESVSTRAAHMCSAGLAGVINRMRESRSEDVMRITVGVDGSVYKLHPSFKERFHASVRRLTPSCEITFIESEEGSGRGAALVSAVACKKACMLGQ
- measurement_description: Glucokinase in vitro assay (G6PDH-coupled NADH generation, OD340)
- Type: biochemical
- test_parameters: 30 uM test compound, 5 mM D-glucose
outcome_measure: fold activation @ 30 uM (fold)
State the answer as a number, implicitly in fold.

Exercise: Provide measured fold activation @ 30 uM value, entry: Cn1nc(NC(=O)C(CC2CCCC2)n2ncc(Oc3ccccc3C(F)(F)F)cc2=O)cc1C(F)(F)F (stereo not shown)
Key: 1.15

Exercise: Assign fold activation @ 30 uM to the following record: CC1CCCC(C)C1Oc1cnn(C(CC2CCCC2)C(=O)Nc2ccn(C[C@@H](O)CO)n2)c(=O)c1 (stereo partly shown)
Key: 1.28

Exercise: Consider the compound CC(C)CC(C(=O)Nc1ccn(C[C@@H](O)CO)n1)n1ncc(Nc2ccccc2Cl)cc1=O (stereo partly shown) and give its recorded fold activation @ 30 uM.
Key: 1.36

Exercise: Annotate the compound Cn1ccc(NC(=O)C(CC2CCCC2)n2nc(Oc3ccccc3)ccc2=O)n1 (stereo not shown) with its measured fold activation @ 30 uM.
Key: 1.3

Exercise: Please indicate fold activation @ 30 uM recorded for Cc1cc(NC(=O)C(CC2CCOCC2)n2ncc(Oc3c(F)cccc3F)cc2=O)nn1CC(C)O (stereo not shown)
Key: 1.18

Exercise: Report measured fold activation @ 30 uM; entry is O=C(Nc1ccn(C[C@@H](O)CO)n1)C(CC1CCCC1)n1ncc(OC2CCC2)cc1=O (stereo partly shown)
Key: 1.33

Exercise: Supply reported fold activation @ 30 uM belonging to this compound: CC(C)(O)Cn1ccc(NC(=O)[C@@H](CC2CCCC2)n2ncc(Oc3ccccc3C3CCCC3)cc2=O)n1 [Example 22B]
Key: 1.22

Exercise: Consider the compound Cn1ccc(NC(=O)C(CC2CCCC2)n2ncccc2=O)n1 (stereo not shown) and give its recorded fold activation @ 30 uM.
Key: 1.3

Exercise: Return fold activation @ 30 uM for the following compound: CC(C)(O)Cn1ccc(NC(=O)[C@@H](CC2CCCC2)n2ncc(Oc3ccccc3S(C)(=O)=O)cc2=O)n1 [Example 30B]
Key: 1.16

Exercise: Identify measured fold activation @ 30 uM associated with CC(=O)OC(C)Cn1nc(NC(=O)C(CC2CCOCC2)n2ncc(Oc3c(F)cccc3F)cc2=O)cc1C (stereo not shown)
Key: 1.18
